Values from patent US20120095193A1

# tested.target: Human MMP13 (human, UniProt P45452 20-471, limits assumed)
# measurement.notes: celTRF and Octet QK cross-reactivity
observable: binding result

- binder: "7B4.1E11 (antibody, IgG1, V domains shown, also called Murine 7B4.1E11) VH: EVKLEESGGGLVQPGGSMKLSCAASGFTSSDAWMDWVRQSPEKGLEWVAEIRNKANNHARHYAESVKGRFTISRDDSKSSVYLQMNSLRAEDSGIYYCTRTYYYGSSYGYCDVWGTGTTVTVSS VL: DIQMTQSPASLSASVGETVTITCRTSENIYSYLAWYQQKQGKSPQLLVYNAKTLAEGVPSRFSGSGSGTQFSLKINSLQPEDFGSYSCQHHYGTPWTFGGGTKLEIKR"
  observable: "binding result"
  measurement: "no binding"
- binder: "2D3.1D4 (antibody, V domains shown, Murine monoclonal antibody from a hybridoma) VH: EVKLEESGGGLVQPGGSMKLSCAASGITFSDAWMDWVRQSPEKGLEWVADIRNTANNHATFYAESVKGRFTISRDDSKSTVYLQMNTLRPEDTGIYYCTSPFAYWGQGTLVTVSA VL: DIVMTQSQKFMSTTVGDRVSITCKASQNVGTAVVWFQQKPGQSPKLLIYSASNRYTRVPDRFTGSGSGTDFTLTISNVQSEDLADYFCQQYVNYPFTFGSGTKLEIKR"
  observable: "binding result"
  measurement: "no binding"
- binder: "12F4.1H7 (antibody, IgG2, V domains shown, also called Murine 12F4.1H7) VH: EVKLEESGGGLVQPGGSMKLSCTASGFTFSDAWMDWVRQSPEKGLEWVAEIRHKANDHAIFYDESVKGRFTISRDDSKNIVYLQMNSLRPEDTGIYYCTSPFAYWGQGTLVTVSA VL: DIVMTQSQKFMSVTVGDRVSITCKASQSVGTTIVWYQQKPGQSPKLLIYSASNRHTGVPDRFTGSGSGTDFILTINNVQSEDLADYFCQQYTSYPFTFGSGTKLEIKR"
  observable: "binding result"
  measurement: "no binding"
